Tested on: NCI-H522 lung
Assay: NCI-60 one-dose screen, 48 h
Conditions: 10 µM
This is part of a sample that, as a whole, favours compounds with a hit. Of some 83,000 tested, about 20% had one in any assay. Calls of active or inactive are those of the source. Rule for the calls: active = growth percent below 10; inactive = the rest.
Write down the outcome that applies. Available outcomes: y (active), n (inactive)

Each compound tested received a call. Report the one for CN1CCN(CC(=O)Nc2cccc(-n3cc(-c4ccncc4)c(-c4ccc(Cl)c(O)c4)n3)c2)CC1 .
n

Each compound tested received a call. Report the one for Oc1ccc(/C=N/N=C2c3ccccc3-c3ccccc32)c(O)c1 .
n

----------
Test system: A498 renal
Test: NCI-60 one-dose screen, 48 h (100 = growth as untreated, 0 = no growth, -100 = all killed)
Conditions: 10 µM
This is part of a sample that, as a whole, favours compounds with a hit. Of some 83,000 tested, about 20% had one in any assay. Active and inactive are the calls of the source. The calls were made as follows: active = growth percent below 10; inactive = the rest.
PROPERTY_NAME: growth

| MOLECULE | PROPERTY_NAME | VALUE_MEASURED |
| --- | --- | --- |
| COc1cc(Cc2cc(-c3ccccc3)n[nH]c2=O)cc(OC)c1OC | growth | 69% (inactive) |
| O=C(CSc1nccc(Nc2cccc3ccccc23)n1)c1ccc(Cl)cc1 | growth | 105% (inactive) |

Could you now look at the following molecule, please?
Please fill in: growth reported for COc1ccc(-c2csc(NC(=O)c3ccc(Cc4n[nH]c(=O)c5cccnc45)cc3)n2)cc1 = 95.8% (inactive)
